Attribution: ChEMBL document CHEMBL3885881

species: Rattus norvegicus; test: DrugMatrix - Regimen: Daily Repeat; assay type: toxicity, organism-based, Sprague-Dawley; parameters: regimen Daily Repeat, gender Male, age 6-8 weeks; details: in vivo, po, 0 mg/kg, 72 h, tissue Blood, route oral GAVAGE, dose level Control, time 3 day, […]
PROPERTY LABEL: MEAN CORPUSCULAR HEMOGLOBIN (pg)
Numbers only; they are read as pg.

Worked examples, 8 molecules total:
MOLECULE	MEASURE UNIT	MEASURED RESULT
CCc1ccc(CCOc2ccc(CC3SC(=O)NC3=O)cc2)nc1 (centres undefined) [PIOGLITAZONE]	pg	24.65
ClC(Cl)(Cl)Cl [CARBON TETRACHLORIDE]	pg	24.3
CS(=O)(=O)Nc1ccc([N+](=O)[O-])cc1Oc1ccccc1 [NIMESULIDE]	pg	26.7
CC(C)c1c(C(=O)Nc2ccccc2)c(-c2ccccc2)c(-c2ccc(F)cc2)n1CC[C@@H](O)C[C@@H](O)CC(=O)O [ATORVASTATIN]	pg	25.37
CCCCC(=O)N(Cc1ccc(-c2ccccc2-c2nnn[nH]2)cc1)[C@H](C(=O)O)C(C)C	pg	24.37
CC(=O)Oc1ccccc1C(=O)O [ASPIRIN]	pg	24.97
Cc1ccc(C)c(OCCCC(C)(C)C(=O)O)c1 [GEMFIBROZIL]	pg	24.93
O=c1c(-c2ccc(O)cc2)coc2cc(O)cc(O)c12 [GENISTEIN]	pg	25.37

Shift focus to the following entry.
(Q) Requested read-out: MEAN CORPUSCULAR HEMOGLOBIN. Entry: c1ccoc1 [FURAN]
(A) 21.4
